Assay: Equilibrium surface tension, Wilhelmy plate method (CMC, γcmc, Amin and derived quantities)
Assay type: physicochemical
Settings: T = 25 °C
I'd appreciate it if you could supply ΔGads values for the items below.
Give bare numbers, in kcal/mol.

Solved entries (count: 5):
CCCCCCCCCCCCOC(=O)[C@H]1O[C@H](OC)[C@H](O)[C@@H](O)[C@@H]1O [MeαGlc(C=O)OC12] = -10.1
CCCCCCOC(=O)[C@H]1O[C@H](OC)[C@H](O)[C@@H](O)[C@@H]1O [MeαGlc(C=O)OC6] = -5.9
CCCCCCCCO[C@H]1O[C@H](CO)[C@H](O)[C@H](O)[C@H]1O [Molecule C8αGal, Octyl α-D-galactopyranoside, reference compound] = -6.4
CCCCCCCC(=O)OC[C@H]1O[C@H](OC)[C@H](O)[C@@H](O)[C@@H]1O [MeαGlcO(C=O)C7, Methyl 6-O-octanoyl-α-D-glucopyranoside] = -6.9
CCCCCCCCO[C@@H]1O[C@H](CO)[C@@H](O)[C@H](O)[C@H]1O [Molecule C8βGlc, octyl β-D-glucopyranoside, reference compound] = -6.4

State the recorded ΔGads for every item in the following list.
1. CCCCCCCCCCOC(=O)[C@H]1O[C@H](OC)[C@H](O)[C@@H](O)[C@@H]1O [MeαGlc(C=O)OC10]
2. CCCCCCCCOC(=O)[C@H]1O[C@H](OC)[C@H](O)[C@@H](O)[C@@H]1O [MeαGlc(C=O)OC8, methyl octyl α-D-glucuronate]
3. CCCCCCCC(=O)OC[C@H]1O[C@@H](OC)[C@H](O)[C@@H](O)[C@H]1O [MeβGalO(C=O)C7]
4. CCCCCC(=O)OC[C@H]1O[C@H](OC)[C@H](O)[C@@H](O)[C@@H]1O [MeαGlcO(C=O)C5, Methyl 6-O-hexanoyl-α-D-glucopyranoside]

-- reply
1: -8.6; 2: -7.3; 3: -7.3; 4: -5.6

* * *

Experiment: Equilibrium surface tension, Wilhelmy plate method (CMC, γcmc, Amin and derived quantities)
Format: physicochemical
Conditions: T = 25 °C
Protocol: CMCs are determined from the inflections in the plots of equilibrium surface tension against the logarithm of the concentration. For the interested reader, the Gibbs-free energy of micellization, ΔGmic, the Gibbs-free energy of adsorption, ΔGads, and the efficiency of surfactant adsorption pC20 were calculated based on their definitions, as presented in Table 2. The surface activity reflects the amphiphiles’ adsorption behavior on the air–aqueous solution interface. […]
Label NOT MET if ΔGmic falls below -5 kcal/mol; label MET in every other case.

CCCCCCCCCCOC(=O)[C@H]1O[C@H](OC)[C@H](O)[C@@H](O)[C@@H]1O = NOT MET
CCCCCCCC(=O)OC[C@H]1O[C@H](OC)[C@H](O)[C@@H](O)[C@@H]1O [MeαGlcO(C=O)C7, Methyl 6-O-octanoyl-α-D-glucopyranoside] = MET
CCCCCCCCO[C@@H]1O[C@H](CO)[C@@H](O)[C@H](O)[C@H]1O [Molecule C8βGlc, octyl β-D-glucopyranoside, reference compound] = MET
CCCCCCCCOC(=O)[C@H]1O[C@H](OC)[C@H](O)[C@@H](O)[C@@H]1O [MeαGlc(C=O)OC8, methyl octyl α-D-glucuronate] = MET
CCCCCCCCCCCCOC(=O)[C@H]1O[C@H](OC)[C@H](O)[C@@H](O)[C@@H]1O = NOT MET

-- ask Does ΔGmic meet or surpass -5 kcal/mol for "CCCCCCOC(=O)[C@H]1O[C@H](OC)[C@H](O)[C@@H](O)[C@@H]1O" ?
-- reply MET

-- ask Does ΔGmic meet or surpass -5 kcal/mol for CCCCCC(=O)OC[C@H]1O[C@H](OC)[C@H](O)[C@@H](O)[C@@H]1O [MeαGlcO(C=O)C5, Methyl 6-O-hexanoyl-α-D-glucopyranoside] ?
-- reply MET

-- ask Does ΔGmic meet or surpass -5 kcal/mol for "CCCCCCCC(=O)OC[C@H]1O[C@@H](OC)[C@H](O)[C@@H](O)[C@H]1O" ?
-- reply MET

-- ask Does ΔGmic meet or surpass -5 kcal/mol for CCCCCCCCO[C@H]1O[C@H](CO)[C@H](O)[C@H](O)[C@H]1O [Molecule C8αGal, Octyl α-D-galactopyranoside, reference compound] ?
-- reply MET
